All figures here come from ChEMBL document CHEMBL3727358.

TARGET OR TEST SYSTEM: 6-phosphofructo-2-kinase/fructose-2,6-bisphosphatase 3 (Homo sapiens)
Sequence (Q16875 whole entry): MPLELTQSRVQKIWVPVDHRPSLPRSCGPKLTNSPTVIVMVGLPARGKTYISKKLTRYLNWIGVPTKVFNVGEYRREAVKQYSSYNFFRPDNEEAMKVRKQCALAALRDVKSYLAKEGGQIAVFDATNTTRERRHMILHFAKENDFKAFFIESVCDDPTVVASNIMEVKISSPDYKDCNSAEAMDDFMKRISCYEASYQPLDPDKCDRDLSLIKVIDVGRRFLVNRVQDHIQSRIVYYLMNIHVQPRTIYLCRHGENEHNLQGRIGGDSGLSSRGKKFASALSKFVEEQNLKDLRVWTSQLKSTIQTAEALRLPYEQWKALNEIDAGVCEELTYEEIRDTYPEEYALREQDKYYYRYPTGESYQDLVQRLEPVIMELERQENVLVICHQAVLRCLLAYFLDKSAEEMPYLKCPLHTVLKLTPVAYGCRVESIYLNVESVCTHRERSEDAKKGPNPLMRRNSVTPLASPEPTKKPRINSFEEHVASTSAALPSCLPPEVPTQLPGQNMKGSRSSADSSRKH
ASSAY: Inhibition of iPFK2 (unknown origin) assessed as reduction in enzyme-mediated fructose-6-phosphate phosphorylation by measuring NADH absorbance pre-incubated for 10 mins before ATP/substrate addition followed by incubation for 1 hr by UV-Visible spectrometry based iPFK-2/PPI-PFK coupled enzyme assay
pIC50: −log10 of the molar value.
MEASURE: pIC50

get_value(item= Cc1nc(NC(C)c2cccc(-c3ccc(N(C)C)nc3)c2)cc(-c2ccc3ncsc3c2)n1 (centres undefined) , readout=pIC50) returns 6.30

Record Cc1nc(NC(C)c2cccc(-c3cccc(F)c3)c2)cc(-c2ccc3ncsc3c2)n1 (centres undefined) . Reported pIC50: < 6.00

The measured pIC50 associated with Cc1nc(NC(C)c2cccc(-c3ccc[nH]3)c2)cc(-c2ccc3ncsc3c2)n1 (centres undefined) reads 6.30

Given item Cc1nc(NCc2cc(OCC(=O)N3CCOCC3)ccc2F)cc(-c2ccc3ncsc3c2)n1 , the value recorded as its pIC50 is < 6.00

Looking up Cc1nc(NC(C)c2cccc(N)c2)cc(-c2ccc3ncsc3c2)n1 (centres undefined) , I found its pIC50 recorded as 6.30

Item: Cc1nc(N[C@H](C)c2ccnc(-c3cnn(C)c3)c2)cc(-c2ccc3occ(C)c3c2)n1 | pIC50: < 6.00

Consider COc1cccc([C@H](C)Nc2cc(-c3cc4ccccc4n3C)nc(C)n2)c1 . Its measured pIC50 is 6.30

pIC50 reading for COc1cccc(-c2cc(NC(C)c3cccc(-c4cnn(C)c4)c3)nc(C)n2)c1F (centres undefined) : < 6.00

Lab note: measured pIC50 of Cc1nc(NC(C)c2cccc(-c3cnn(C)c3)c2)cc(-c2ccc(F)c(C)c2)n1 (centres undefined) was 6.30

Cc1nc(NC(C)c2cccc(NS(=O)(=O)c3cn(C)cn3)c2)cc(-c2ccc3ncsc3c2)n1 (centres undefined) has a reported pIC50 of < 6.00

Documented pIC50 of Cc1nc(NC(C)c2cccc(-c3ccsc3)c2)cc(-c2ccc3ncsc3c2)n1 (centres undefined) : < 6.00

pIC50 reported for this compound Cc1cc(COc2ccc(F)c(C(C)Nc3cc(-c4ccc5ncsc5c4)nc(C)n3)c2)n(C)n1 (centres undefined) : < 6.00

The reported pIC50 of the compound Cc1nc(N[C@H](C)c2cccc(O)c2)cc(-c2ccc3ncsc3c2)n1 was < 6.00

For Cc1nc(N[C@H](C)c2cccc(-c3cnn(C)c3)c2)cc(-c2cccc(F)c2)n1 the compound record lists pIC50 as < 6.00

Record CCN(C)C(=O)COc1cccc(C(C)Nc2cc(-c3ccc4ncsc4c3)nc(C)n2)c1 (centres undefined) , field pIC50: 6.30

CCc1coc2ccc(-c3cc(N[C@@H](C)c4cccc(Br)c4)nc(C)n3)cc12 yielded pIC50 of 6.30

# compound Cc1nc(NC(C)c2cccc(OCC3CCCN(C(=O)OC(C)(C)C)C3)c2)cc(-c2ccc3ncsc3c2)n1 (centres undefined) ; its pIC50 = < 6.00

Record CCN(CC)C(=O)COc1cccc(C(C)Nc2cc(-c3ccc4c(c3)N(C)CCO4)nc(C)n2)c1 (centres undefined) . Reported pIC50: < 6.00

Value of measured pIC50 for the entry Cc1nc(NCC2CCCNC2)cc(-c2ccc3ncsc3c2)n1 (centres undefined) : < 6.00
